Exercise: for every item that follows, state its recorded IC50.
Tested on: Bel-7402
Experiment: Cytotoxicity against human Bel7402 cells after 72 hrs by MTT assay
Format: functional, cell-based
Conditions: Bel-7402, 72 h
Output spec: scalar in nM, unitless text.

stdin: Item "O=C(Nc1ccc(-n2ncc3c(Br)cccc32)cc1)Nc1ccc(Cl)c(C(F)(F)F)c1" has what recorded IC50?
stdout: 1300

stdin: Can you check "O=C(Nc1ccc(-n2ncc3c(C(F)(F)F)cccc32)cc1)Nc1ccc(C(F)(F)F)cc1" next?
stdout: 1000

stdin: Now consider "COc1cccc2c1cnn2-c1ccc(NC(=O)Nc2ccc(Cl)c(C(F)(F)F)c2)cc1" and answer again.
stdout: 2900

stdin: "O=C(Nc1ccc(-n2ncc3cnccc32)cc1)Nc1ccc(Cl)c(C(F)(F)F)c1" ?
stdout: 2700

stdin: Now try "CNc1cccc2c1cnn2-c1ccc(NC(=O)Nc2ccc(Cl)c(C(F)(F)F)c2)cc1" .
stdout: 5000

Values compiled from ChEMBL document CHEMBL2346613.
